The values you see were collected from paper PMC8699473.

- assaySummary: Long-term stability in spiked pooled human plasma
- assayConditions: validation standard ULOV
Recorded Long-term stability, 2 month, -80°C Accuracy [%] values for a group of compounds are listed next.
The figure you give is taken to be in %; do not add the unit.

As a guide, the following entries are already answered.
Name the recorded Long-term stability, 2 month, -80°C Accuracy [%] of the item CN(C)C/C=C/C(=O)Nc1cc2c(Nc3ccc(F)c(Cl)c3)ncnc2cc1O[C@H]1CCOC1 [Afatinib] in your answer.
96.0

Name the recorded Long-term stability, 2 month, -80°C Accuracy [%] of the item O=C(c1cc(Cc2n[nH]c(=O)c3ccccc23)ccc1F)N1CCN(C(=O)C2CC2)CC1 [Olaparib] in your answer.
101.1

Name the recorded Long-term stability, 2 month, -80°C Accuracy [%] of the item COc1cc2ncnc(Nc3ccc(F)c(Cl)c3)c2cc1NC(=O)/C=C/CN1CCCCC1 [Dacomitinib] in your answer.
99.6

Name the recorded Long-term stability, 2 month, -80°C Accuracy [%] of the item O=C(c1ccc(F)c(F)c1Nc1ccc(I)cc1F)N1CC(O)([C@@H]2CCCCN2)C1 [Cobimetinib] in your answer.
103.6

Name the recorded Long-term stability, 2 month, -80°C Accuracy [%] of the item Cc1ccc(C(=O)Nc2ccc(CN3CCN(C)CC3)c(C(F)(F)F)c2)cc1C#Cc1cnc2cccnn12 [Ponatinib] in your answer.
100.1

More entries:
Name the recorded Long-term stability, 2 month, -80°C Accuracy [%] of the item Cc1cn(-c2cc(NC(=O)c3ccc(C)c(Nc4nccc(-c5cccnc5)n4)c3)cc(C(F)(F)F)c2)cn1 [Nilotinib] in your answer.
97.0

Name the recorded Long-term stability, 2 month, -80°C Accuracy [%] of the item COC(=O)c1ccc2c(c1)NC(=O)/C2=C(\Nc1ccc(N(C)C(=O)CN2CCN(C)CC2)cc1)c1ccccc1 [Nintedanib] in your answer.
94.8

Name the recorded Long-term stability, 2 month, -80°C Accuracy [%] of the item COC(=O)N[C@@H](C)CNc1nccc(-c2cn(C(C)C)nc2-c2cc(Cl)cc(NS(C)(=O)=O)c2F)n1 [Encorafenib] in your answer.
101.8
